For each of the binders below, state its 180 nM hFGFR1c-V5-6His Bind (RU).
target.desc: T1, extracellular domain of human FGFR1c expressed with C-terminal V5 and hexahistidine tags (human, UniProt P11362 22-376)
T1 construct: also called hFGFR1c-V5-6His
T1 sequence: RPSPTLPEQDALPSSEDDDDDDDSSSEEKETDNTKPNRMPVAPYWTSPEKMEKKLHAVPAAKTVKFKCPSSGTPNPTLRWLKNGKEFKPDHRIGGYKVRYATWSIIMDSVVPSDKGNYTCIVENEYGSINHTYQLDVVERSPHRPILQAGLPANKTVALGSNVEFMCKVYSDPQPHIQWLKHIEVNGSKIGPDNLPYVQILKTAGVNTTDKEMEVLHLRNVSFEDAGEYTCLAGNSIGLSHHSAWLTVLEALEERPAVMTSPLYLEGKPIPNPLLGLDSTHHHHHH
protocol.notes: SPR, mAb captured, 25 C
Numeric answer only, unit RU assumed.

Query: # query: 180 nM hFGFR1c-V5-6His Bind (RU) of entry H2aM8098N (antibody, V domains shown, mouse IgG2 Fc (H2aM prefix)) VH: QLQLQESGPGLVKPSETLSLTCTVSGGSISSSNYYWDWIRQTPEKGLEWIGSIHYSGTSYYNPSLKSRVTISVDTSKNQFSLKLRSVTAADAAVYYCARQTSVYWYFDIWGHGTLVTVST VL: EIVLTQSPGTLSLSPGEGATLSCRASQSVRNNYLAWYQQKPGQAPRLLIYGASSRAIGIPDRFSGSGSGTDFTLTISRLEPKDFVVYYCQQYGGSLFTFGPGTKVDIK
Response: -0.9

Query: Try this binder next: H2aM8832N (antibody, V domains shown, mouse IgG2 Fc (H2aM prefix)) VH: QVQLVESGGGVVQPGRSLRLSCAASGFTFSRYGMHWVRQAPGKGLEWVAVIWYDGTNKYYEDSLKGRFTISRDNSKNTLYLQMNSLRAEDSAVYYCARDQGKYIDYWGQGTLVTVSS VL: AIQMTQSPSSLSASVGDRVTITCRTSQDIRNDLGWYQQKPGKVPNLLIYAASTLQSGVPSRFSGSGSGTDFTLTISSLQPEDFATYYCLQDYNYPFTFGPGTKVDIK
Response: 5.8

Query: Try this binder next: H2aM8109N (antibody, V domains shown, mouse IgG2 Fc (H2aM prefix)) VH: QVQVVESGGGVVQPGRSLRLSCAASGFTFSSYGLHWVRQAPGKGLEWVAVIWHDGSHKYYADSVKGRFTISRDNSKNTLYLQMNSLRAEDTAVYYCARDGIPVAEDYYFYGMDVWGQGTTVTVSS VL: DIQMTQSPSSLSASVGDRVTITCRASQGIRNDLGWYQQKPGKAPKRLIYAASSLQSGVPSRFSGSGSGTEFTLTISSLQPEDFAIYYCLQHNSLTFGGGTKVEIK
Response: -0.7
